System: KYSE-50 (Esophageal Squamous Cell Carcinoma);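 note: after 72 h of two-drug dosing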
experimental-details: Bliss excess, mean over the matrix (fraction); higher = more synergy
Would you please tag the item MET when its Bliss excess is 0.03 or above, and NOT MET when it is below?

Known results for compounds:
C=CCn1c(=O)c2cnc(Nc3ccc(N4CCN(C)CC4)cc3)nc2n1-c1cccc(C(C)(C)O)n1 [AZD1775] + C[C@@H]1COCCN1C2=NC(=NC(=C2)C3(CC3)[S@](=N)(=O)C)C4=C5C=CNC5=NC=C4 [AZD6738] (first compound max 1 µM, partner max 10 µM) = MET
NC1(C(=O)N[C@@H](CCO)c2ccc(Cl)cc2)CCN(c2ncnc3[nH]ccc23)CC1 [Capivasertib] + CC(C)n1c(=O)n(C)c2cnc3cc(F)c(-c4ccc(OCCCN5CCCCC5)nc4)cc3c21 [AZD1390] (first compound max 10 µM, 7x7, partner max 0.3 µM) = NOT MET
CN(CCO)CC[C@H](CSc1ccccc1)Nc1ccc(S(=O)(=O)NC(=O)c2ccc(N3CCC([C@@H](O)c4ccccc4-c4ccc(Cl)cc4)CC3)cc2)cc1S(=O)(=O)C(F)(F)F [AZD4320] + Cn1cnc2c(F)c(Nc3ccc(Br)cc3Cl)c(C(=O)NOCCO)cc21 [Selumetinib] (first compound max 1 µM, 7x7, partner max 3 µM) = MET
Cc1c2c(nn1C)CSCc1cc(n(C)n1)CSc1cc(c3ccccc3c1)OCCCc1c(C(=O)O)n(C)c3c-2c(Cl)ccc13 [AZD5991] + C[C@@H](Nc1cc(F)cc(F)c1)c1cc(C(=O)N(C)C)cc2c(=O)cc(N3CCOCC3)oc12 [AZD8186] (first compound max 1 µM, 7x7, partner max 3 µM) = MET
COc1nnc2ccc(N3CCC(c4ccc(OCCN5CCN(C)C(=O)[C@H]5C)cc4)CC3)nn12 [AZD5153] + C=CCn1c(=O)c2cnc(Nc3ccc(N4CCN(C)CC4)cc3)nc2n1-c1cccc(C(C)(C)O)n1 [AZD1775] (first compound max 1 µM, partner max 1 µM) = NOT MET

Enquiry: Reported Bliss excess at or above 0.03? CCN(CCO)CCCOc1ccc2c(Nc3cc(CC(=O)Nc4cccc(F)c4)[nH]n3)ncnc2c1 [AZD2811] + O=C(c1cc(Cc2n[nH]c(=O)c3ccccc23)ccc1F)N1CCN(C(=O)C2CC2)CC1 [Olaparib] (first compound max 1 µM, 7x7, partner max 10 µM)
Return: MET

Enquiry: Try this compound next: Cc1cc2ncnn2cc1Nc1ncc2c(n1)n(C1CCOCC1)c(=O)n2C [AZD7648] + CN(C)CCCOc1ccc(-c2ccc3ncc4c(c3c2)n(C2CCOCC2)c(=O)n4C)cn1 [AZD0156] (first compound max 10 µM, 7x7, partner max 1 µM)
Return: NOT MET
